test system: Vero E6 infected with SARS-CoV-2; assay: SARS-CoV-2 infection rate relative to infected DMSO; higher = more infection, active = 60 or less; conditions: 24 h
Value Kind: SARS-CoV-2 infection rate (%)
Write it as a number; the unit % goes unstated.

Below, 5 compounds whose answers are already recorded.
Data request: So what's the measured SARS-CoV-2 infection rate for this one? O=C1O[C@H]([C@@H](O)CO)C([O-])=C1O.[Na+] [sodium-ascorbate] (10 µM)
Data returned: 95.5

Data request: Further, for O=C(NS(=O)(=O)c1ccc(Br)s1)c1ccc(Cl)cc1Cl [tasisulam] (10 µM) ?
Data returned: 109

Data request: Same question for CCOc1c2c(c(OCC)c3ccccc13)C(=O)N(c1ccc(CC(=O)NS(=O)(=O)c3ccccc3)cc1)C2 (10 µM) please.
Data returned: 104

Data request: Moving on to the next compound: Cc1[nH]cnc1-c1ccc(Cl)cc1 [lofemizole] (10 µM)
Data returned: 102

Data request: Query COc1ccccc1OCCNCC(O)COc1cccc2[nH]c3ccccc3c12 (configuration not stated) [carvedilol] (10 µM) next
Data returned: 97.5

***
Data request: For CC(=O)N[C@H]1[C@H]([C@H](O)[C@H](O)CO)OC(C(=O)O)=C[C@@H]1NC(=N)N [zanamivir] (10 µM) , what is its reported SARS-CoV-2 infection rate?
Data returned: 108

Data request: Next compound up: [N-]=[N+]=CC(=O)CC[C@H](N)C(=O)O [6-diazo-5-oxo-L-norleucine] (10 µM)
Data returned: 93.5

Data request: Okay, and Cc1ccc(NC2=CC(=O)c3sc(C)nc3C2=O)cc1 [ryuvidine] (0.833333 µM) ?
Data returned: 104

----------
Item-by-item account of inhibition of SARS-CoV-2 cytopathic effect
test system: Vero E6 infected with SARS-CoV-2; test: inhibition of SARS-CoV-2 cytopathic effect; higher = more antiviral protection, active = above 15; conditions: 100 nM; 48 h
Please give a number only; it is taken to be in %.

Data request: Given "O=C(O)C1=CCCN(CCON=C(c2ccccc2)c2ccccc2)C1" , state its recorded inhibition of SARS-CoV-2 cytopathic effect.
Data returned: 0.96

Data request: // same read-out, input: "Oc1ccc2c3c1O[C@H]1[C@@H](O)CC[C@@]4(O)[C@@H](C2)N(CC2CCC2)CC[C@]314"
Data returned: 0.27

Data request: Also need "O=C(Nc1cccc(C(F)(F)F)c1)Nc1ccc(Br)cc1-c1nnn[nH]1" , thanks.
Data returned: 2.2

Data request: Again, but for "Oc1ccc(Cl)cc1Cc1cc(Cl)ccc1O"
Data returned: -2.85

Data request: // next record "N[C@H](CO)C(=O)O"
Data returned: -1.84

Data request: Then "Cc1c(C(=O)NN2CCCCC2)nn(-c2ccc(Cl)cc2Cl)c1-c1ccc(Cl)cc1" ?
Data returned: -0.12

Data request: Further, for "COC(=O)C1=C(C)NC(C)=C(C(=O)OCCSc2ccccc2)[C@@H]1C" ?
Data returned: -2.77

Data request: Please answer likewise for "Cc1cc(C)c(CNC(=O)c2cc(-c3ccc(N4CCN(C)CC4)nc3)cc3c2c(C)cn3C(C)C)c(=O)[nH]1"
Data returned: -3.49

Data request: Entry COc1ccc2[nH]c(SCc3ncc(C)c(OC)c3C)nc2c1 [omeprazole-sulfide] please
Data returned: -15.8
